For each record, write down the corresponding Growth Rate.
# Test system: Fibroblast
# method summary: Incucyte cell viability with human fibroblast; note: unitless GR value; below 1 slowed growth and below 0 cell loss
# Type: toxicity, cell-based
# condition parameters: 6 h, 10 µM, compound concentration 10 uM, replicate number 1, timepoint 6 hours
Answers are plain numbers.

Here's what some known entries look like.
compound	Growth Rate
CC(C)c1cc(-c2ccc(F)c3ccccc23)nc(N)n1	0.51
CCCC(CCC)C(=O)O	0.27
CC(=O)NCCc1c(Cc2ccccc2)[nH]c2ccccc12	0.87

Look up Growth Rate for the entries below, preserving their order.
1. CN1CCN(c2nc3cc(C(F)(F)F)ccc3n3cccc23)CC1.O=C(O)/C=C\C(=O)O.O=C(O)/C=C\C(=O)O
2. NC(=O)c1cccc(-c2cc(Nc3ccc(OC(F)(F)F)cc3)ncn2)c1
3. CCN1C(=CC(C)=O)Sc2ccc(OC)cc21
4. CN(C)C/C=C/C(=O)Nc1ccc(C(=O)N2CCCC(Nc3ncc(Cl)c(-c4c[nH]c5ccccc45)n3)C2)cc1 (stereo not drawn)
5. Cc1cc(Cn2nnc3c(-c4ccco4)nc(N)nc32)ccc1N

1: 0.24; 2: -0.84; 3: -0.68; 4: -0.96; 5: 0.45

Look up Growth Rate for the entries below, preserving their order.
1. O=S(=O)(c1ccccc1)c1cnc2c(N3CCNCC3)cccc2c1 [INTEPIRDINE]
2. COc1cc(Nc2ncc3c(n2)-c2ccc(Cl)cc2C(c2c(F)cccc2OC)=NC3)ccc1C(=O)O
3. CN(C)c1ccnc2sc3c(=O)n(N4CCCCCC4)cnc3c12
4. CCCCCCCCCCCCC/C=C/[C@@H](O)[C@@H](N)COP(=O)([O-])OCC[N+](C)(C)C
5. COc1cc(OC2CCN(C(C)=O)CC2)ccc1C(=O)N1CCC(N2C(=O)OCc3ccccc32)CC1
6. Cc1nccc(COC(=O)N2C[C@@H]3[C@@H](CNC(=O)c4ccc5[nH]nnc5c4)[C@@H]3C2)n1
7. COc1ccccc1N1CCN(C[C@@H](C(=O)NC(C)(C)C)c2ccccc2)CC1.Cl.Cl
8. C[C@@H](OC[C@@]1(c2ccccc2)CC[C@]2(CCC(=O)N2)CN1)c1cc(C(F)(F)F)cc(C(F)(F)F)c1

0.23
-0.97
-0.22
-0.36
-0.07
0.04
0.54
-0.04

Look up Growth Rate for the entries below, preserving their order.
1. Cl.Clc1cccc(Cl)c1NC1=NCCN1 [CLONIDINE HYDROCHLORIDE]
2. Cc1sc2c(c1C)C(c1ccc(Cl)cc1)=N[C@H](CC(=O)OC(C)(C)C)c1nnc(C)n1-2

0.94
-0.25
